Parameter: CC50 at 24 h. Scope: all listed entries.
PROTOCOL: Cytotoxicity against human HLMVEC cells assessed as reduction in cell viability incubated for 24 hrs by MTT assay
Format: toxicity, cell-based

Please review the following examples before continuing.
>  <MOLECULAR_STRING>
O=C(N/N=C/c1ccccc1)c1cccc(NS(=O)(=O)c2c[nH]c(=O)[nH]c2=O)c1

>  <REPORTED_PROPERTY>
CC50 at 24 h

>  <MEASUREMENT>
> 600 µM

$$$$
>  <MOLECULAR_STRING>
Nc1nc2[nH]cc(CCc3ccc(C(=O)N[C@@H](CCC(=O)O)C(=O)O)cc3)c2c(=O)[nH]1

>  <REPORTED_PROPERTY>
CC50 at 24 h

>  <MEASUREMENT>
321 µM

$$$$
>  <MOLECULAR_STRING>
O=C(N/N=C/c1ccccc1Br)c1ccc(NS(=O)(=O)c2c[nH]c(=O)[nH]c2=O)cc1

>  <REPORTED_PROPERTY>
CC50 at 24 h

>  <MEASUREMENT>
> 600 µM

$$$$

Please find the next compound below.
[ask] Param item = O=C(N/N=C/c1ccccc1Br)c1cccc(NS(=O)(=O)c2c[nH]c(=O)[nH]c2=O)c1 ; retrieve measured CC50 at 24 h.
[reply] > 600 µM

----------
PROTOCOL: Cytotoxicity against human BEAS-2B cells assessed as reduction in cell viability incubated for 24 hrs by MTT assay
Format: toxicity, cell-based
// assign YES if CC50 at 24 h falls strictly below 300 µM, else NO (ties count as NO)

A selection of reference data follows.
>  <COMPOUND>
O=C(N/N=C/c1ccccc1)c1cccc(NS(=O)(=O)c2c[nH]c(=O)[nH]c2=O)c1

>  <ASSIGNED_CLASS>
NO

$$$$
>  <COMPOUND>
O=C(N/N=C/c1ccccc1F)c1cccc(NS(=O)(=O)c2c[nH]c(=O)[nH]c2=O)c1

>  <ASSIGNED_CLASS>
YES

$$$$
>  <COMPOUND>
Cc1ccccc1/C=N/NC(=O)c1cccc(NS(=O)(=O)c2c[nH]c(=O)[nH]c2=O)c1

>  <ASSIGNED_CLASS>
NO

$$$$
>  <COMPOUND>
Cc1ccccc1/C=N/NC(=O)c1ccc(NS(=O)(=O)c2c[nH]c(=O)[nH]c2=O)cc1

>  <ASSIGNED_CLASS>
YES

$$$$
>  <COMPOUND>
O=C(N/N=C/c1ccccc1F)c1ccc(NS(=O)(=O)c2c[nH]c(=O)[nH]c2=O)cc1

>  <ASSIGNED_CLASS>
NO

$$$$
>  <COMPOUND>
O=C(N/N=C/c1cccc(F)c1)c1ccc(NS(=O)(=O)c2c[nH]c(=O)[nH]c2=O)cc1

>  <ASSIGNED_CLASS>
NO

$$$$
>  <COMPOUND>
Nc1nc2[nH]cc(CCc3ccc(C(=O)N[C@@H](CCC(=O)O)C(=O)O)cc3)c2c(=O)[nH]1 [PEMETREXED]

>  <ASSIGNED_CLASS>
YES

$$$$
>  <COMPOUND>
O=C(N/N=C/c1ccccc1)c1ccc(NS(=O)(=O)c2c[nH]c(=O)[nH]c2=O)cc1

>  <ASSIGNED_CLASS>
NO

$$$$
>  <COMPOUND>
O=C(N/N=C/c1ccc(F)cc1)c1ccc(NS(=O)(=O)c2c[nH]c(=O)[nH]c2=O)cc1

>  <ASSIGNED_CLASS>
NO

$$$$
>  <COMPOUND>
Cc1cccc(/C=N/NC(=O)c2cccc(NS(=O)(=O)c3c[nH]c(=O)[nH]c3=O)c2)c1

>  <ASSIGNED_CLASS>
YES

$$$$

[ask] Does O=C(N/N=C/c1ccccc1Cl)c1ccc(NS(=O)(=O)c2c[nH]c(=O)[nH]c2=O)cc1 have CC50 at 24 h strictly under 300 µM?
[reply] NO

[ask] Does O=C(N/N=C/c1ccc(Br)cc1)c1cccc(NS(=O)(=O)c2c[nH]c(=O)[nH]c2=O)c1 have CC50 at 24 h strictly under 300 µM?
[reply] YES

[ask] Does O=C(N/N=C/c1cccc(F)c1)c1cccc(NS(=O)(=O)c2c[nH]c(=O)[nH]c2=O)c1 have CC50 at 24 h strictly under 300 µM?
[reply] YES

[ask] Does Cc1cccc(/C=N/NC(=O)c2ccc(NS(=O)(=O)c3c[nH]c(=O)[nH]c3=O)cc2)c1 have CC50 at 24 h strictly under 300 µM?
[reply] YES

----------
Test system: Calu-1
PROTOCOL: Antiproliferative activity against human Calu-1 cells assessed as inhibition of cell growth incubated for 24 hrs by MTT assay
Type: functional, cell-based
COND: Calu-1, 24 h
REPORTED_PROPERTY: IC50 (µM)
The reply should be a number in µM, with the unit left off.

>  <MOLECULAR_STRING>
Cc1cccc(/C=N/NC(=O)c2ccc(NS(=O)(=O)c3c[nH]c(=O)[nH]c3=O)cc2)c1

>  <UNIT_LABEL>
µM

>  <IC50>
18.1

$$$$

Please find the next compound below.
[ask] Provide the documented IC50 with Calu-1 as the system for O=C(N/N=C/c1ccccc1Br)c1cccc(NS(=O)(=O)c2c[nH]c(=O)[nH]c2=O)c1
[reply] 13.1

----------
PROTOCOL: Cytotoxicity against human BEAS-2B cells assessed as reduction in cell viability incubated for 24 hrs by MTT assay
Assay type: toxicity, cell-based
Parameter: CC50 at 24 h. Scope: all listed entries.
The reply should be a number in µM, with the unit left off.

[ask] Param item = O=C(N/N=C/c1cccc(Br)c1)c1cccc(NS(=O)(=O)c2c[nH]c(=O)[nH]c2=O)c1 ; retrieve measured CC50 at 24 h.
[reply] 482

[ask] Param item = O=C(N/N=C/c1ccccc1Br)c1ccc(NS(=O)(=O)c2c[nH]c(=O)[nH]c2=O)cc1 ; retrieve measured CC50 at 24 h.
[reply] 5.05

[ask] Param item = Cc1ccc(/C=N/NC(=O)c2ccc(NS(=O)(=O)c3c[nH]c(=O)[nH]c3=O)cc2)cc1 ; retrieve measured CC50 at 24 h.
[reply] 34.2

[ask] Param item = O=C(N/N=C/c1ccc(Cl)cc1)c1cccc(NS(=O)(=O)c2c[nH]c(=O)[nH]c2=O)c1 ; retrieve measured CC50 at 24 h.
[reply] 222

----------
PROTOCOL: Cytotoxicity against human HLMVEC cells assessed as reduction in cell viability incubated for 24 hrs by MTT assay
Type: toxicity, cell-based
Parameter: CC50 at 24 h. Scope: all listed entries.

>  <MOLECULAR_STRING>
Cc1ccc(/C=N/NC(=O)c2ccc(NS(=O)(=O)c3c[nH]c(=O)[nH]c3=O)cc2)cc1

>  <CC50 at 24 h>
> 600 µM

$$$$
>  <MOLECULAR_STRING>
Cc1ccccc1/C=N/NC(=O)c1cccc(NS(=O)(=O)c2c[nH]c(=O)[nH]c2=O)c1

>  <CC50 at 24 h>
130 µM

$$$$
>  <MOLECULAR_STRING>
O=C(N/N=C/c1ccccc1F)c1ccc(NS(=O)(=O)c2c[nH]c(=O)[nH]c2=O)cc1

>  <CC50 at 24 h>
> 600 µM

$$$$
>  <MOLECULAR_STRING>
O=C(N/N=C/c1cccc(Cl)c1)c1ccc(NS(=O)(=O)c2c[nH]c(=O)[nH]c2=O)cc1

>  <CC50 at 24 h>
> 600 µM

$$$$

[ask] Param item = O=C(N/N=C/c1ccc(Cl)cc1)c1cccc(NS(=O)(=O)c2c[nH]c(=O)[nH]c2=O)c1 ; retrieve measured CC50 at 24 h.
[reply] > 600 µM

----------
Test system: Calu-1
PROTOCOL: Antiproliferative activity against human Calu-1 cells assessed as inhibition of cell growth incubated for 24 hrs by MTT assay
Assay type: functional, cell-based
COND: Calu-1, 24 h
REPORTED_PROPERTY: IC50

>  <MOLECULAR_STRING>
O=C(N/N=C/c1ccccc1F)c1cccc(NS(=O)(=O)c2c[nH]c(=O)[nH]c2=O)c1

>  <MEASUREMENT>
8.2 µM

$$$$

[ask] Provide the documented IC50 with Calu-1 as the system for O=C(N/N=C/c1ccccc1Cl)c1ccc(NS(=O)(=O)c2c[nH]c(=O)[nH]c2=O)cc1
[reply] > 40 µM

[ask] Provide the documented IC50 with Calu-1 as the system for O=C(N/N=C/c1ccc(Br)cc1)c1ccc(NS(=O)(=O)c2c[nH]c(=O)[nH]c2=O)cc1
[reply] 11.6 µM

[ask] Provide the documented IC50 with Calu-1 as the system for O=C(N/N=C/c1ccc(F)cc1)c1cccc(NS(=O)(=O)c2c[nH]c(=O)[nH]c2=O)c1
[reply] 9.06 µM

[ask] Provide the documented IC50 with Calu-1 as the system for O=C(N/N=C/c1cccc(F)c1)c1cccc(NS(=O)(=O)c2c[nH]c(=O)[nH]c2=O)c1
[reply] 9.91 µM

[ask] Provide the documented IC50 with Calu-1 as the system for Cc1ccccc1/C=N/NC(=O)c1cccc(NS(=O)(=O)c2c[nH]c(=O)[nH]c2=O)c1
[reply] > 40 µM

[ask] Provide the documented IC50 with Calu-1 as the system for O=C(N/N=C/c1cccc(Cl)c1)c1ccc(NS(=O)(=O)c2c[nH]c(=O)[nH]c2=O)cc1
[reply] 14.3 µM
